assay: melting temperature; UV melt of duplexes; conditions: sodium 0.12 M; strand 2 µM
quantity: Tm (°C)

>>> assay_result("CTCAACTTGCGGTAAATAAATCGCTTAATC+GATTAAGCGATTTATTTACCGCAAGTTGAG ((((((((((((((((((((((((((((((+))))))))))))))))))))))))))))))")
64.8
>>> assay_result("CCACTATACCATCTATGTAC+GTACATAGATGGTATAGTGG ((((((((((((((((((((+))))))))))))))))))))")
54.6
>>> assay_result("GATATAGCAAAATTCTAAGTTAATA+TATTAACTTAGAATTTTGCTATATC (((((((((((((((((((((((((+)))))))))))))))))))))))))")
53.5
>>> assay_result("GCGAGCGACAGGTTACTTGGCTGAT+ATCAGCCAAGTAACCTGTCGCTCGC (((((((((((((((((((((((((+)))))))))))))))))))))))))")
70.8
>>> assay_result("ATAACTTTACGTGTGTGACCTATTA+TAATAGGTCACACACGTAAAGTTAT (((((((((((((((((((((((((+)))))))))))))))))))))))))")
60.7
>>> assay_result("TCGGAGAAATCACTGAGCTGCCTGAGAAGA+TCTTCTCAGGCAGCTCAGTGATTTCTCCGA ((((((((((((((((((((((((((((((+))))))))))))))))))))))))))))))")
70.4
>>> assay_result("GTCCACGCCCGGTGCGACGG+CCGTCGCACCGGGCGTGGAC ((((((((((((((((((((+))))))))))))))))))))")
73.9
>>> assay_result("CGCCGCTGCCGACTGGAGGAGCGCGGGACG+CGTCCCGCGCTCCTCCAGTCGGCAGCGGCG ((((((((((((((((((((((((((((((+))))))))))))))))))))))))))))))")
81.6
>>> assay_result("GTTATTCCGCAGTCCGATGGCAGCAGGCTC+GAGCCTGCTGCCATCGGACTGCGGAATAAC ((((((((((((((((((((((((((((((+))))))))))))))))))))))))))))))")
74.9
>>> assay_result("CGAGCTTATCCCTATCCCTC+GAGGGATAGGGATAAGCTCG ((((((((((((((((((((+))))))))))))))))))))")
60.2
>>> assay_result("GTTCTATACTCTTGAAGTTGATTAC+GTAATCAACTTCAAGAGTATAGAAC (((((((((((((((((((((((((+)))))))))))))))))))))))))")
56.1
>>> assay_result("TTCAAGTTAAACATTCTATC+GATAGAATGTTTAACTTGAA ((((((((((((((((((((+))))))))))))))))))))")
49.5

* * *

Collected Tm values appear next to each entry.
test: melting temperature; melt of duplexes; details: sodium 0.0675 M; strand 1 µM
quantity: Tm (°C)

>>> assay_result("CGACGTGCTGAATGTGCTG+CAGCACATCTGGCACGTCG ((((((((...((((((((+))))))))...))))))))")
51.7
>>> assay_result("CGACGTGCTACATGTGCTG+CAGCACATTTTGCACGTCG ((((((((.(.((((((((+)))))))).).))))))))")
50.4
>>> assay_result("CGACGTGCCGAATGTGCTG+CAGCACATTCCGCACGTCG ((((((((.((((((((((+)))))))))).))))))))")
56
>>> assay_result("CGACGTGCTCTATGTGCTG+CAGCACATACTGCACGTCG ((((((((..(((((((((+)))))))))..))))))))")
49.5
>>> assay_result("CGACGTGCACCATGTGCTG+CAGCACATTTAGCACGTCG ((((((((...((((((((+))))))))...))))))))")
42.2
>>> assay_result("CGACGTGCTTAATGTGCTG+CAGCACATAGGGCACGTCG ((((((((...((((((((+))))))))...))))))))")
50
>>> assay_result("CGACGTGCCCAATGTGCTG+CAGCACATGAGGCACGTCG (((((((((..((((((((+))))))))..)))))))))")
56.1
>>> assay_result("CGACGTGCTCCATGTGCTG+CAGCACATTCGGCACGTCG ((((((((...((((((((+))))))))...))))))))")
47.6
>>> assay_result("CGACGTGCTTAATGTGCTG+CAGCACATGAGGCACGTCG ((((((((.(.((((((((+)))))))).).))))))))")
52.7
>>> assay_result("CGACGTGCGCCATGTGCTG+CAGCACATGTCGCACGTCG (((((((((.(((((((((+))))))))).)))))))))")
59.7
>>> assay_result("CGACGTGCGGCATGTGCTG+CAGCACATAATGCACGTCG ((((((((...((((((((+))))))))...))))))))")
51.1
>>> assay_result("CGACGTGCCAGATGTGCTG+CAGCACATCAAGCACGTCG ((((((((..(((((((((+)))))))))..))))))))")
53.7
>>> assay_result("CGACGTGCGCTATGTGCTG+CAGCACATGTAGCACGTCG ((((((((...((((((((+))))))))...))))))))")
52.5
>>> assay_result("CGACGTGCATGATGTGCTG+CAGCACATCTCGCACGTCG ((((((((..(((((((((+)))))))))..))))))))")
53.9
>>> assay_result("CGACGTGCCGTATGTGCTG+CAGCACATCAAGCACGTCG ((((((((...((((((((+))))))))...))))))))")
49.3
